System: MST1R;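 further: KINOMEscan kinase panel screen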
Conditions: concentration: 1 μM, replicates: in singlicate; n = 1
Recorded %Inh by entry
All answers are understood in %, so give the number only.

[
  {
    "COMPOUND": "Cn1cc(-c2[nH]c3cc(NC(=O)[C@H](N)C4CCCCC4)cc4c3c2C=NNC4=O)cn1",
    "%Inh (%)": 15
  },
  {
    "COMPOUND": "Cl.NC(=O)c1cccc(Nc2nccc(Nc3ccc(Oc4c(Cl)cccc4Cl)c(Cl)c3)n2)c1 [GW659009]",
    "%Inh (%)": 3
  },
  {
    "COMPOUND": "NCCCC(NC(=O)c1cc(Br)c(-c2ccnc3[nH]ccc23)s1)c1ccccc1.O=C(O)C(F)(F)F.O=C(O)C(F)(F)F (stereo not shown) [GSK1287544]",
    "%Inh (%)": 17
  },
  {
    "COMPOUND": "Cc1cccc(Nc2nc(N[C@H]3CCNC3)ncc2C(N)=O)c1.Cl [GSK2197149]",
    "%Inh (%)": 0
  },
  {
    "COMPOUND": "COc1cc2c(cc1OCCN1CCNCC1)ncc1c3ccc(C#N)cc3[nH]c21",
    "%Inh (%)": 9
  },
  {
    "COMPOUND": "COC(=O)Nc1nc2cc(Oc3ccc(NC(=O)Nc4cc(C(F)(F)F)ccc4F)cn3)ccc2[nH]1.Cl.Cl [GW681170]",
    "%Inh (%)": 17
  },
  {
    "COMPOUND": "O=C(Nc1cccc(-c2nn3ncccc3c2-c2ccnc(Nc3ccccc3)n2)c1)c1c(F)cccc1F [GSK198271]",
    "%Inh (%)": 15
  },
  {
    "COMPOUND": "Fc1ccc(-c2ncn(C3CCNCC3)c2-c2ccnc(Oc3ccc(-c4ccccc4)cc3)n2)cc1 [SB-245391]",
    "%Inh (%)": 0
  },
  {
    "COMPOUND": "CCc1ccc(-c2ccc3c(c2)-c2c(cnn2C)S(=O)(=O)N3C)cc1",
    "%Inh (%)": 31
  }
]

// moving on: another record for %Inh
Q: For the compound COc1cc(Nc2nccc(-c3c(-c4cccc(NC(=O)c5c(F)cccc5F)c4)nn4ccccc34)n2)cc(OC)c1OC [GSK323521] , give its measured %Inh value.
A: 6
